STUDY TARGET: GSK3α (GST-full length GSK3α) (Homo sapiens (Human), UniProt P49840)
Sequence (P49840 whole entry): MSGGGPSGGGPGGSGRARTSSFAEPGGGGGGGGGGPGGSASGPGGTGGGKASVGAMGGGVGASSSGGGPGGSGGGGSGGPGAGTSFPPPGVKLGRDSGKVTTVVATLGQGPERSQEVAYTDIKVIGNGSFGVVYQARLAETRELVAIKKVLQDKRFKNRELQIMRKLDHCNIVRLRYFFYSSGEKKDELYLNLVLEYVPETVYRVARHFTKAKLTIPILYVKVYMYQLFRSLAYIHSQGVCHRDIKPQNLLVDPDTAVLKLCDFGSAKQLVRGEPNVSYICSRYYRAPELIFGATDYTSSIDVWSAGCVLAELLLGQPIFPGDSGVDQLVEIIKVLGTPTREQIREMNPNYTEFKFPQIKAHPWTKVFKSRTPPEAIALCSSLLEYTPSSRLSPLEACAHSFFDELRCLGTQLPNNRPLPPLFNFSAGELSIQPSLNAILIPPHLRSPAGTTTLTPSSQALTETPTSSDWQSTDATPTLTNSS
EXPERIMENTAL PROTOCOL: GSK3α TR-FRET kinase assay
Format: biochemical
CONDITION CONTEXT: 1 nM GSK3α, 4 μM ATP, 30 minute preincubation, Table 16; read-out: GSK3-A TR-FRET BIOCHEMICAL (TR-FRET)
The entries below are paired with their reported IC50.

COc1ccc(S(=O)(=O)N2CCC3(CC2)C2=C(CC(C)(C)CC2=O)Nc2n[nH]cc23)cc1Cl :: ≤ 100 nM

Q. Bench note: what IC50 did `CC[C@]1(c2cccc(N(C)c3nccc(C)n3)c2)C2=C(CC(C)(C)CC2=O)Nc2n[nH]cc21` show?
A. 100 to 1000 nM

Q. Bench note: what IC50 did `Cc1cc(S(=O)(=O)N2CCC3(CC2)C2=C(CC(C)(C)CC2=O)Nc2n[nH]cc23)cc(C)n1` show?
A. ≤ 100 nM

Q. Bench note: what IC50 did `Cn1ccc(S(=O)(=O)N2CCC3(CC2)C2=C(CC(C)(C)CC2=O)Nc2n[nH]cc23)n1` show?
A. ≤ 100 nM

Q. Bench note: what IC50 did O=C1C2=C(Nc3n[nH]cc3C23CCOCC3)C2CCC1C2 (stereo not shown) show?
A. 100 to 1000 nM

Q. Bench note: what IC50 did `Cc1csc(S(=O)(=O)N2CCC3(CC2)C2=C(CC(C)(C)CC2=O)Nc2n[nH]cc23)n1` show?
A. ≤ 100 nM

Q. Bench note: what IC50 did `CC[C@@]1(c2cccc(-c3ccnc(CCO)c3)c2)C2=C(CC(C)(C)CC2=O)Nc2n[nH]cc21` show?
A. 1000 to 5000 nM

---

STUDY TARGET: GSK3b (GST-full length GSK3b) (Homo sapiens (Human), UniProt P49841)
Sequence (P49841 whole entry): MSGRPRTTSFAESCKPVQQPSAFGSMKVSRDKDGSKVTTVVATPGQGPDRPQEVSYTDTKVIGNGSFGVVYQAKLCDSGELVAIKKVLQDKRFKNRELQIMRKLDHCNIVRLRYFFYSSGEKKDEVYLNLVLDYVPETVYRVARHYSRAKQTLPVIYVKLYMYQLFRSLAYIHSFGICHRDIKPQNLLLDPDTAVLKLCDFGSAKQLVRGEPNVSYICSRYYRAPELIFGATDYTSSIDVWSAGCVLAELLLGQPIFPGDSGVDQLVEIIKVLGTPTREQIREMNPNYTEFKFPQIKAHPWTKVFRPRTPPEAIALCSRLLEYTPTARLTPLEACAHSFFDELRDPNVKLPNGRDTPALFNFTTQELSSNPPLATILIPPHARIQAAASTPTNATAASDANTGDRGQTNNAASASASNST
EXPERIMENTAL PROTOCOL: GSK3b TR-FRET kinase assay
Format: biochemical
CONDITION CONTEXT: 1 nM GSK3b, 2 μM ATP, 30 minute preincubation, Table 16; read-out: GSK3-B TR-FRET BIOCHEMICAL (TR-FRET)
The entries below are paired with their reported IC50.

// solved cases for IC50 follow
CC1(C)CC(=O)C2=C(C1)Nc1n[nH]cc1[C@@]21CCCN(S(=O)(=O)C2CC2)CC1 :: 0.1 to 1 µM
CCC1(c2cccc(C(F)(F)F)c2)C2=C(CC3(CCN(C)C3=O)CC2=O)Nc2n[nH]cc21 (stereo not shown) [Compound 950330] :: > 5 µM
Cc1[nH]nc2c1C1(CCOCC1)C1=C(CC(C)(C)C(F)C1=O)N2 (stereo not shown) :: 0.1 to 1 µM
CCC1(c2cccc(N(C)c3nccc(C)n3)c2)C2=C(CC(C)(C)CC2=O)Nc2n[nH]cc21 (stereo not shown) [Compound 945328] :: ≤ 0.1 µM
CC1(C)CC(=O)C2=C(C1)Nc1n[nH]cc1C21CCC(C(F)(F)F)CC1 (stereo not shown) :: ≤ 0.1 µM

Q. Bench note: what IC50 did CCC1(c2cccc(-c3ccnc(C)c3)c2)C2=C(Nc3n[nH]cc31)C(F)C(C)(C)CC2=O (stereo not shown) [Compound 946103] show?
A. 1 to 5 µM

Q. Bench note: what IC50 did CCC1(c2cccc(-c3cn(C)nc3C)c2)C2=C(Nc3n[nH]cc31)C(F)C(C)(C)CC2=O (single isomer, unassigned) [Compound 947653] show?
A. 0.1 to 1 µM

---

STUDY TARGET: GSK3α (GST-full length GSK3α) (Homo sapiens (Human), UniProt P49840)
EXPERIMENTAL PROTOCOL: GSK3α TR-FRET kinase assay
Format: biochemical
CONDITION CONTEXT: 1 nM GSK3α, 4 μM ATP, 30 minute preincubation; geometric mean; read-out: GSK3-A TR-FRET BIOCHEMICAL (TR-FRET); GMean; IC50
MEASURE: IC50

// solved cases for IC50 follow
CCC1(c2cccc(N(C)c3ccccn3)c2)C2=C(CC(C)(C)CC2=O)Nc2n[nH]cc21 (stereo not drawn) :: ≤ 100 nM
CCC1(c2ccccc2)C2=C(CC(C)(C(F)(F)F)CC2=O)Nc2n[nH]cc21 (stereo not drawn) :: 100 to 1000 nM
CC[C@]1(c2cccc(-c3ccnc4cc(F)ccc34)c2)C2=C(CC(C)(C)NC2=O)Nc2n[nH]cc21 :: ≤ 100 nM
CCC1(c2cccc(OC)c2)C2=C(CC(C)CC2=O)Nc2n[nH]cc21 (stereo not drawn) :: ≤ 100 nM
CCC1(c2cccc(-c3cc(C)ncc3F)c2)C2=C(CC(C)(C)NC2=O)Nc2n[nH]c(C)c21 (stereo not drawn) :: ≤ 100 nM

Q. Bench note: what IC50 did CCC1(c2cccc(S(=O)(=O)C(C)C)c2)C2=C(CC(C)(C)NC2=O)Nc2[nH]nc(C)c21 (stereo not drawn) show?
A. ≤ 100 nM

Q. Bench note: what IC50 did CCC1(c2cccc(-n3ccnc3)c2)C2=C(CC(C)(C)CC2=O)Nc2n[nH]cc21 (stereo not drawn) [Compound 874533] show?
A. 100 to 1000 nM

Q. Bench note: what IC50 did `CC[C@@]1(c2ccc(C)cc2)C2=C(CC(C)(C)CC2=O)Nc2n[nH]cc21` show?
A. 100 to 1000 nM

Q. Bench note: what IC50 did CCC1(c2cccc(-c3cncn3C)c2)C2=C(CC(C)(C)NC2=O)Nc2n[nH]c(C(F)(F)F)c21 (stereo not drawn) [Compound 949003] show?
A. 100 to 1000 nM

Q. Bench note: what IC50 did CCC1(c2cccc(C(F)(F)F)c2)C2=C(CC(C)(C)CC2=O)Nc2n[nH]cc21 (stereo not drawn) show?
A. ≤ 100 nM

Q. Bench note: what IC50 did `CC[C@@]1(c2cccc(-c3ccncc3F)c2)C2=C(CC(C)(C)NC2=O)Nc2[nH]nc(C(F)(F)F)c21` show?
A. ≤ 100 nM

Q. Bench note: what IC50 did CCC1(c2cccc(OC(C)C)c2)C2=C(CC(C)(C)CC2=O)Nc2n[nH]cc21 (stereo not drawn) show?
A. ≤ 100 nM

Q. Bench note: what IC50 did CCC1(c2cccc(S(=O)(=O)C3CC3)c2)C2=C(CC(C)(C)NC2=O)Nc2n[nH]c(C)c21 (stereo not drawn) show?
A. ≤ 100 nM

Q. Bench note: what IC50 did `CC[C@@]1(c2ccccc2)C2=C(CC3(CCC3)CC2=O)Nc2n[nH]cc21` show?
A. ≤ 100 nM

Q. Bench note: what IC50 did `CC[C@]1(c2cccc(C)c2)C2=C(CC(C)(C)CC2=O)Nc2n[nH]cc21` show?
A. 1000 to 5000 nM

---

STUDY TARGET: GSK3b (GST-full length GSK3b) (Homo sapiens (Human))
EXPERIMENTAL PROTOCOL: GSK3b TR-FRET kinase assay
Format: biochemical
CONDITION CONTEXT: 1 nM GSK3b, 2 μM ATP, 30 minute preincubation, Table 16; read-out: GSK3-B TR-FRET BIOCHEMICAL (TR-FRET)
The entries below are paired with their reported IC50.

Q. Bench note: what IC50 did `COc1cccc(S(=O)(=O)N2CC[C@@]3(C2)C2=C(CC(C)(C)CC2=O)Nc2n[nH]cc23)c1` show?
A. ≤ 100 nM

Q. Bench note: what IC50 did `CC[C@@]1(c2ccccc2)C2=C(Nc3n[nH]cc31)[C@H]1CC[C@H](C1)C2=O` show?
A. > 1700 nM

Q. Bench note: what IC50 did CC1CCCC12C1=C(CC(C)(C)CC1=O)Nc1n[nH]cc12 (stereo not drawn) show?
A. 1000 to 5000 nM

Q. Bench note: what IC50 did `CC1(C)CC(=O)C2=C(C1)Nc1n[nH]cc1C21CCN(S(=O)(=O)c2cn3c(n2)CCCC3)CC1` show?
A. 100 to 1000 nM

Q. Bench note: what IC50 did `Cn1cc(S(=O)(=O)N2CCC3(CC2)C2=C(CC(C)(C)CC2=O)Nc2n[nH]cc23)nn1` show?
A. 100 to 1000 nM

Q. Bench note: what IC50 did `CC1(C)CC(=O)C2=C(C1)Nc1n[nH]cc1C21CCN(S(C)(=O)=O)CC1` show?
A. ≤ 100 nM

Q. Bench note: what IC50 did `CC[C@]1(c2cccc(N(C)c3cc(C)cc(C)n3)c2)C2=C(CC(C)(C)CC2=O)Nc2n[nH]cc21` show?
A. 100 to 1000 nM

---

STUDY TARGET: GSK3α (GST-full length GSK3α) (Homo sapiens (Human), UniProt P49840)
EXPERIMENTAL PROTOCOL: GSK3α TR-FRET kinase assay
Assay type: biochemical
CONDITION CONTEXT: 1 nM GSK3α, 4 μM ATP, 30 minute preincubation, Table 16; read-out: GSK3-A TR-FRET BIOCHEMICAL (TR-FRET)
pIC50: −log10 of the molar value.
MEASURE: pIC50

CC[C@]1(c2cccc([C@H](C)c3ncccn3)c2)C2=C(CC(C)(C)CC2=O)Nc2n[nH]cc21 :: ≥ 7.00
CCC1(c2cccc(-c3ccnc4c3CCC4)c2)C2=C(CC(C)(C)CC2=O)Nc2n[nH]cc21 (stereo not shown) [Compound 945606] :: ≥ 7.00
COc1ccccc1S(=O)(=O)N1CCCC2(CC1)C1=C(CC(C)(C)CC1=O)Nc1n[nH]cc12 (stereo not shown) :: ≥ 7.00

Q. Bench note: what pIC50 did `COc1ccc(S(=O)(=O)N2CCC3(CC2)C2=C(CC(C)(C)CC2=O)Nc2n[nH]cc23)cn1` show?
A. ≥ 7.00

Q. Bench note: what pIC50 did `CC[C@H]1C[C@]2(CO1)C1=C(CC(C)(C)CC1=O)Nc1n[nH]cc12` show?
A. 6.00 to 7.00

Q. Bench note: what pIC50 did `CC[C@]1(c2cccc(-c3cnc(C)n3C)c2)C2=C(CC(C)(C)CC2=O)Nc2n[nH]cc21` show?
A. 5.30 to 6.00

Q. Bench note: what pIC50 did CCC1(c2cccc(-c3ccnc(CCO)c3)c2)C2=C(CC(C)(C)CC2=O)Nc2n[nH]cc21 (stereo not shown) show?
A. ≥ 7.00
